Assay: in vivo
Details: rat, plasma, po
measurement_label: Tmax (min)

CC(C)c1nc(CN(C)C(=O)NC(C(=O)N[C@@H](Cc2ccccc2)C[C@H](O)[C@H](Cc2ccccc2)NC(=O)OCc2cnco2)C(C)C)cs1 (stereo partly specified)	34.8
CC(C)c1cccc(COC(=O)NC(C(=O)N[C@@H](Cc2ccccc2)[C@@H](O)C[C@H](Cc2ccccc2)NC(=O)OCc2cccnc2)C(C)C)n1 (stereo partly specified)	15
CC(NC(=O)N(Cc1csc(C(C)C)n1)C1CC1)C(=O)N[C@@H](Cc1ccccc1)C[C@H](O)[C@H](Cc1ccccc1)NC(=O)OCc1cncs1 (stereo partly specified)	108
CC(C)C(NC(=O)N(C)Cc1ccccn1)C(=O)N[C@@H](Cc1ccccc1)C[C@H](O)[C@H](Cc1ccccc1)NC(=O)OCc1cccnc1 (stereo partly specified)	9
COc1ccc(COC(=O)NC(C(=O)N[C@@H](Cc2ccccc2)[C@@H](O)C[C@H](Cc2ccccc2)NC(=O)OCc2cccnc2)C(C)C)nc1 (stereo partly specified)	12
CC(C)C(NC(=O)OCc1nccs1)C(=O)N[C@@H](Cc1ccccc1)C[C@H](O)[C@H](Cc1ccccc1)NC(=O)OCc1cccnc1 (stereo partly specified)	9
Cc1ncc(CN(C)C(=O)NC(C(=O)N[C@@H](Cc2ccccc2)C[C@H](O)[C@H](Cc2ccccc2)NC(=O)OCc2cccnc2)C(C)C)nc1C (stereo partly specified)	15
CC(C)C(NC(=O)OCc1cnccn1)C(=O)N[C@@H](Cc1ccccc1)[C@@H](O)C[C@H](Cc1ccccc1)NC(=O)OCc1cccnc1 (stereo partly specified)	12
CC(NC(=O)N(C)Cc1coc(C(C)C)n1)C(=O)N[C@@H](Cc1ccccc1)C[C@H](O)[C@H](Cc1ccccc1)NC(=O)OCc1cncs1 (stereo partly specified)	15
CC(C)c1nc(CN(C)C(=O)NC(C(=O)N[C@@H](Cc2ccccc2)C[C@H](O)[C@H](Cc2ccccc2)NC(=O)OCc2cccnc2)C(C)C)cs1 (stereo partly specified)	19.8
Cc1ccc(CN(C)C(=O)NC(C(=O)N[C@@H](Cc2ccccc2)C[C@H](O)[C@H](Cc2ccccc2)NC(=O)OCc2cccnc2)C(C)C)cn1 (stereo partly specified)	12
CC(C)C(NC(=O)OCc1ccccn1)C(=O)N[C@@H](Cc1ccccc1)[C@@H](O)C[C@H](Cc1ccccc1)NC(=O)OCc1ccoc1 (stereo partly specified)	16.8
CC(C)c1nc(CN(C)C(=O)NCCC(=O)N[C@@H](Cc2ccccc2)C[C@H](O)[C@H](Cc2ccccc2)NC(=O)OCc2cncs2)cs1	6
Cc1ccc(COC(=O)NC(C(=O)N[C@@H](Cc2ccccc2)[C@@H](O)C[C@H](Cc2ccccc2)NC(=O)OCc2cccnc2)C(C)C)cn1 (stereo partly specified)	6
CC(C)C(NC(=O)OCc1nccs1)C(=O)N[C@@H](Cc1ccccc1)[C@@H](O)C[C@H](Cc1ccccc1)NC(=O)OCc1cccnc1 (stereo partly specified)	10.8
Cc1ncc(CN(C)C(=O)NC(C(=O)N[C@@H](Cc2ccccc2)[C@@H](O)C[C@H](Cc2ccccc2)NC(=O)OCc2cccnc2)C(C)C)nc1C (stereo partly specified)	9
CC(C)C(NC(=O)OCc1ccccn1)C(=O)N[C@@H](Cc1ccccc1)C[C@H](O)[C@H](Cc1ccccc1)NC(=O)OCc1cncs1 (stereo partly specified)	22.2
CC(C)C(NC(=O)N(C)Cc1csc(C(C)(C)C)n1)C(=O)N[C@@H](Cc1ccccc1)[C@@H](O)C[C@H](Cc1ccccc1)NC(=O)OCc1cccnc1 (stereo partly specified)	19.8
COc1ccc(CN(C)C(=O)NC(C(=O)N[C@@H](Cc2ccccc2)[C@@H](O)C[C@H](Cc2ccccc2)NC(=O)OCc2cccnc2)C(C)C)nc1 (stereo partly specified)	9
CC(C)C(NC(=O)N(C)Cc1cscn1)C(=O)N[C@@H](Cc1ccccc1)[C@@H](O)C[C@H](Cc1ccccc1)NC(=O)OCc1cccnc1 (stereo partly specified)	22.2
CC(C)c1nc(CCC(=O)NC(C(=O)N[C@@H](Cc2ccccc2)C[C@H](O)[C@H](Cc2ccccc2)NC(=O)OCc2cccnc2)C(C)C)cs1 (stereo partly specified)	6
CC(C)C(NC(=O)OCc1csc(N2CCOCC2)n1)C(=O)N[C@@H](Cc1ccccc1)C[C@H](O)[C@H](Cc1ccccc1)NC(=O)OCc1cncs1 (stereo partly specified)	6
CCc1cccc(COC(=O)NC(C(=O)N[C@@H](Cc2ccccc2)[C@@H](O)C[C@H](Cc2ccccc2)NC(=O)OCc2cccnc2)C(C)C)n1 (stereo partly specified)	15
CC(C)c1nc(CN(C)C(=O)NC(C(=O)N[C@@H](Cc2ccccc2)C[C@H](O)[C@H](Cc2ccccc2)NC(=O)OCc2ccno2)C(C)C)cs1 (stereo partly specified)	12
Cc1cnc(COC(=O)NC(C(=O)N[C@@H](Cc2ccccc2)[C@@H](O)C[C@H](Cc2ccccc2)NC(=O)OCc2cccnc2)C(C)C)cn1 (stereo partly specified)	12
Cc1ncc(COC(=O)NC(C(=O)N[C@@H](Cc2ccccc2)[C@@H](O)C[C@H](Cc2ccccc2)NC(=O)OCc2cccnc2)C(C)C)nc1C (stereo partly specified)	12

###

Experiment: Oral bioavailability in rat
Assay type: ADME, organism-based
Conditions: in vivo
measurement_label: bioavailability (%)

Cc1ncc(COC(=O)NC(C(=O)N[C@@H](Cc2ccccc2)[C@@H](O)C[C@H](Cc2ccccc2)NC(=O)OCc2cccnc2)C(C)C)nc1C (stereo partly drawn)	5.7
CCc1nc(CN(C)C(=O)NC(C(=O)N[C@@H](Cc2ccccc2)C[C@H](O)[C@H](Cc2ccccc2)NC(=O)OCc2cccnc2)C(C)C)cs1 (stereo partly drawn)	17
CC(C)C(NC(=O)N(C)Cc1ccccn1)C(=O)N[C@@H](Cc1ccccc1)C[C@H](O)[C@H](Cc1ccccc1)NC(=O)OCc1cncnc1 (stereo partly drawn)	5.1

###

Test: in vivo
Settings: rat, plasma, po, 10 mg/kg
measurement_label: Cmax (nM)

Cc1ncc(COC(=O)NC(C(=O)N[C@@H](Cc2ccccc2)[C@@H](O)C[C@H](Cc2ccccc2)NC(=O)OCc2cccnc2)C(C)C)nc1C (stereo partly specified)	350
CC(C)c1nc(CN(C)C(=O)NC(C(=O)N[C@@H](Cc2ccccc2)C[C@H](O)[C@H](Cc2ccccc2)NC(=O)OCc2ccno2)C(C)C)cs1 (stereo partly specified)	370
CCc1nc(CN(C)C(=O)NC(C(=O)N[C@@H](Cc2ccccc2)C[C@H](O)[C@H](Cc2ccccc2)NC(=O)OCc2cccnc2)C(C)C)cs1 (stereo partly specified)	1490
Cc1cncc(COC(=O)NC(C(=O)N[C@@H](Cc2ccccc2)[C@@H](O)C[C@H](Cc2ccccc2)NC(=O)OCc2cccnc2)C(C)C)c1 (stereo partly specified)	480
COCc1ncc(COC(=O)NC(C(=O)N[C@@H](Cc2ccccc2)[C@@H](O)C[C@H](Cc2ccccc2)NC(=O)OCc2cccnc2)C(C)C)s1 (stereo partly specified)	380
CCc1nc(CN(C)C(=O)NC(C(=O)N[C@@H](Cc2ccccc2)C[C@H](O)[C@H](Cc2ccccc2)NC(=O)OCc2cncs2)C(C)C)cs1 (stereo partly specified)	6170
COc1cncc(COC(=O)NC(C(=O)N[C@@H](Cc2ccccc2)C[C@H](O)[C@H](Cc2ccccc2)NC(=O)OCc2cccnc2)C(C)C)c1 (stereo partly specified)	200
CC(NC(=O)N(C)Cc1coc(C(C)C)n1)C(=O)N[C@@H](Cc1ccccc1)C[C@H](O)[C@H](Cc1ccccc1)NC(=O)OCc1cncs1 (stereo partly specified)	3600
CCc1cccc(COC(=O)NC(C(=O)N[C@@H](Cc2ccccc2)C[C@H](O)[C@H](Cc2ccccc2)NC(=O)OCc2cccnc2)C(C)C)n1 (stereo partly specified)	590
COc1ccc(CN(C)C(=O)NC(C(=O)N[C@@H](Cc2ccccc2)[C@@H](O)C[C@H](Cc2ccccc2)NC(=O)OCc2cccnc2)C(C)C)nc1 (stereo partly specified)	2170
COCc1nc(CN(C)C(=O)NC(C(=O)N[C@@H](Cc2ccccc2)[C@@H](O)C[C@H](Cc2ccccc2)NC(=O)OCc2cccnc2)C(C)C)cs1 (stereo partly specified)	2290
CC(C)C(NC(=O)OCc1ccccn1)C(=O)N[C@@H](Cc1ccccc1)[C@@H](O)C[C@H](Cc1ccccc1)NC(=O)OCc1cncnc1 (stereo partly specified)	1180
CCc1nc(CN(C)C(=O)NC(C(=O)N[C@@H](Cc2ccccc2)[C@@H](O)C[C@H](Cc2ccccc2)NC(=O)OCc2cccnc2)C(C)C)cs1 (stereo partly specified)	1460
CC(C)C(NC(=O)N(C)Cc1csc(C2CCC2)n1)C(=O)N[C@@H](Cc1ccccc1)C[C@H](O)[C@H](Cc1ccccc1)NC(=O)OCc1cncs1 (stereo partly specified)	2480
CC(C)c1ncc(COC(=O)NC(C(=O)N[C@@H](Cc2ccccc2)C[C@H](O)[C@H](Cc2ccccc2)NC(=O)OCc2cccnc2)C(C)C)s1 (stereo partly specified)	150
Cc1cncc(COC(=O)NC(C(=O)N[C@@H](Cc2ccccc2)C[C@H](O)[C@H](Cc2ccccc2)NC(=O)OCc2cccnc2)C(C)C)n1 (stereo partly specified)	1330
CC(C)C(NC(=O)OCc1csc(N2CCOCC2)n1)C(=O)N[C@@H](Cc1ccccc1)[C@@H](O)C[C@H](Cc1ccccc1)NC(=O)OCc1cccnc1 (stereo partly specified)	90
Cc1cccc(COC(=O)NC(C(=O)N[C@@H](Cc2ccccc2)C[C@H](O)[C@H](Cc2ccccc2)NC(=O)OCc2cccnc2)C(C)C)n1 (stereo partly specified)	1740
COc1ccc(CN(C)C(=O)NC(C(=O)N[C@@H](Cc2ccccc2)C[C@H](O)[C@H](Cc2ccccc2)NC(=O)OCc2cccnc2)C(C)C)nc1 (stereo partly specified)	1050
Cc1cccc(CN(C)C(=O)NC(C(=O)N[C@@H](Cc2ccccc2)[C@@H](O)C[C@H](Cc2ccccc2)NC(=O)OCc2cccnc2)C(C)C)n1 (stereo partly specified)	2420
CC(C)c1nc(COC(=O)NC(C(=O)N[C@@H](Cc2ccccc2)C[C@H](O)[C@H](Cc2ccccc2)NC(=O)OCc2cccnc2)C(C)C)cs1 (stereo partly specified)	210
CC(C)c1nc(CN(C(=O)NCCC(=O)N[C@@H](Cc2ccccc2)[C@@H](O)C[C@H](Cc2ccccc2)NC(=O)OCc2cncs2)C2CC2)cs1	650
CC(C)c1nc(CN(C)C(=O)NC(C(=O)N[C@@H](Cc2ccccc2)[C@@H](O)C[C@H](Cc2ccccc2)NC(=O)OCc2cccnc2)C(C)C)cs1 (stereo partly specified)	1650
CC(C)C(NC(=O)OCc1nccs1)C(=O)N[C@@H](Cc1ccccc1)[C@@H](O)C[C@H](Cc1ccccc1)NC(=O)OCc1cccnc1 (stereo partly specified)	3330
CCc1cccc(COC(=O)NC(C(=O)N[C@@H](Cc2ccccc2)[C@@H](O)C[C@H](Cc2ccccc2)NC(=O)OCc2cccnc2)C(C)C)n1 (stereo partly specified)	1260
CC(C)c1nc(CN(C)C(=O)NC(C(=O)N[C@@H](Cc2ccccc2)C[C@H](O)[C@H](Cc2ccccc2)NC(=O)OCc2cccnc2)C(C)C)cs1 (stereo partly specified)	980

Origin of the recorded values: ChEMBL document CHEMBL1131475
